All values here come from patent US20120135923A1.

target: hMC3-R (human) (UniProt P41968); assay: cell-based or functional assay
Sequence (P41968 whole entry): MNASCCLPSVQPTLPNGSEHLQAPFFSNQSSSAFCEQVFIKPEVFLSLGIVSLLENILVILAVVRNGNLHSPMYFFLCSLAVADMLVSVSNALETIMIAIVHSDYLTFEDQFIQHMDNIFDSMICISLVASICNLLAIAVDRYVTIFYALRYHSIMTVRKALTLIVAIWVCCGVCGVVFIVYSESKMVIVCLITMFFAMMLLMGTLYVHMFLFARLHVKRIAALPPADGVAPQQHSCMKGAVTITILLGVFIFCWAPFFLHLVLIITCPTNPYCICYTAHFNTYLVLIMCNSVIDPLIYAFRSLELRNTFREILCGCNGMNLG
Bridge positions count the residues as written; N and C are the ends. Square brackets hold non-standard residues; d marks the D form. Ends that are not written are not given here. Pen = CC(C)(S)[C@H](N)C(=O)O; Dap = NC[C@H](N)C(=O)O; GABA = NCCCC(=O)O; βAla = NCCC(=O)O
measurement_label: cAMP EC50 (nM)
Give bare numbers, in nM.

Example binders with recorded cAMP EC50:
{"binder": "Ac-RCH[dF]RW[GABA][Pen]-NH2 (disulfide 2-8; SMILES CC(=O)N[C@@H](CCCNC(=N)N)C(=O)N[C@H]1CSSC(C)(C)[C@@H](C(N)=O)NC(=O)CCCNC(=O)[C@H](Cc2c[nH]c3ccccc23)NC(=O)[C@H](CCCNC(=N)N)NC(=O)[C@@H](Cc2ccccc2)NC(=O)[C@H](Cc2c[nH]cn2)NC1=O) [Ac-Arg-c(Cys-His-D-Phe-Arg-Trp-Gaba-Pen)-NH2]", "measurement_label": "cAMP EC50", "recorded_result": 8.09}
{"binder": "Ac-[dR]CH[dF]RW[GABA][Pen]-NH2 (disulfide 2-8; SMILES CC(=O)N[C@H](CCCNC(=N)N)C(=O)N[C@H]1CSSC(C)(C)[C@@H](C(N)=O)NC(=O)CCCNC(=O)[C@H](Cc2c[nH]c3ccccc23)NC(=O)[C@H](CCCNC(=N)N)NC(=O)[C@@H](Cc2ccccc2)NC(=O)[C@H](Cc2c[nH]cn2)NC1=O) [Ac-D-Arg-c(Cys-His-D-Phe-Arg-Trp-Gaba-Pen)-NH2]", "measurement_label": "cAMP EC50", "recorded_result": 32.4}
{"binder": "[dF]CH[d(Et)Tyr]RW[βAla][dC]T-NH2 (disulfide 2-8) [D-Phe-c(Cys-His-D-(Et)Tyr-Arg-Trp-β-Ala-D-Cys)-Thr-NH2]", "measurement_label": "cAMP EC50", "recorded_result": 1.1}

Sure, the documented cAMP EC50 for D[dA]H[dF]RW[Dap]-NH2 (lactam 1-7; also: residues 1-2 joined in a hydantoin ring (C(O))) [c[Hydantoin(C(O)-(Asp-D-Ala))-His-D-Phe-Arg-Trp-Dap]-NH2] is 49.3
